src = patent US12077503B2

- System: giant foxtail (Setaria faberi)
- PROCEDURE_TEXT: Test G Post-Emergence Protocol
- Type: in vivo
- PROTOCOL_CONDITIONS: Setaria faberi, post-emergence, 312 h, 62.5 g ai/ha, evaluated after 13 days, 100=total damage to plant, 0=no damage to plant, read-out: Foxtail, Giant damage rating
- Text: Seeds of corn (Zea mays), giant foxtail (Setaria faberi), barnyardgrass (Echinochloa crus-galli), ivy-leaved morning glory (Ipomoea hederacea), redroot pigweed (Amaranthus retroflexus) and velvetleaf (Abutilon theophrasti) were sown in standard soil in pots. […]
ATTRIBUTE_MEASURED: pest or weed control at 62.5 g/ha (%)

molecule="CN1C[C@H](c2ccc(C(F)(F)F)cc2)[C@@H](C(=O)Nc2cccc3ccsc23)C1=O (racemic)" experimental_system="giant foxtail (Setaria faberi)" attribute_measured="pest or weed control at 62.5 g/ha" measured_value=20
molecule="CC(C)Oc1cc(OC(F)(F)F)cc(C2CN(C)C(=O)C2C(=O)Nc2cccc(F)c2F)c1 (stereo not drawn)" experimental_system="giant foxtail (Setaria faberi)" attribute_measured="pest or weed control at 62.5 g/ha" measured_value=70
molecule="CN1C[C@H](c2cccc(C(F)(F)F)c2)[C@@H](C(=O)Nc2cnccc2S(C)(=O)=O)C1=O (racemic)" experimental_system="giant foxtail (Setaria faberi)" attribute_measured="pest or weed control at 62.5 g/ha" measured_value=60
molecule="CN1C[C@H](c2ccc(C(F)F)cc2)[C@@H](C(=O)Nc2cccc(F)c2F)C1=O (racemic)" experimental_system="giant foxtail (Setaria faberi)" attribute_measured="pest or weed control at 62.5 g/ha" measured_value=80
molecule=CN1C[C@H](c2ccc(Cl)cc2)[C@@H](C(=O)Nc2cnccc2C(F)(F)F)C1=O experimental_system="giant foxtail (Setaria faberi)" attribute_measured="pest or weed control at 62.5 g/ha" measured_value=80
molecule="C=Cc1cccc([C@@H]2CN(C)C(=O)[C@H]2C(=O)Nc2cccc(F)c2F)c1 (racemic)" experimental_system="giant foxtail (Setaria faberi)" attribute_measured="pest or weed control at 62.5 g/ha" measured_value=70
molecule="CN1C[C@H](c2cccc(C(F)(F)F)c2)[C@@H](C(=O)Nc2cc(O)ccc2F)C1=O (racemic)" experimental_system="giant foxtail (Setaria faberi)" attribute_measured="pest or weed control at 62.5 g/ha" measured_value=0
molecule="CSc1ncccc1NC(=O)[C@H]1C(=O)N(C)C[C@@H]1c1ccc(C(F)(F)F)cc1 (racemic)" experimental_system="giant foxtail (Setaria faberi)" attribute_measured="pest or weed control at 62.5 g/ha" measured_value=10
molecule="CCOc1cc([C@@H]2CN(C)C(=O)[C@H]2C(=O)Nc2cccc(F)c2C)ccc1F (racemic)" experimental_system="giant foxtail (Setaria faberi)" attribute_measured="pest or weed control at 62.5 g/ha" measured_value=70
molecule="Cc1cccc(NC(=O)[C@H]2C(=O)N(C)C[C@@H]2c2ccc(C(F)(F)F)cc2)[n+]1[O-] (racemic)" experimental_system="giant foxtail (Setaria faberi)" attribute_measured="pest or weed control at 62.5 g/ha" measured_value=30
molecule="COCCOc1cc([C@@H]2CN(C)C(=O)[C@H]2C(=O)Nc2cccc(F)c2C)ccc1C (racemic)" experimental_system="giant foxtail (Setaria faberi)" attribute_measured="pest or weed control at 62.5 g/ha" measured_value=80
molecule="CN1CC(c2cc(C#N)cc(OC(F)(F)F)c2)C(C(=O)Nc2cccc(F)c2F)C1=O (stereo not drawn)" experimental_system="giant foxtail (Setaria faberi)" attribute_measured="pest or weed control at 62.5 g/ha" measured_value=0
molecule="COc1c(F)cc(C2CN(C)C(=O)C2C(=O)Nc2cccc(F)c2F)cc1F (stereo not drawn)" experimental_system="giant foxtail (Setaria faberi)" attribute_measured="pest or weed control at 62.5 g/ha" measured_value=80
molecule="CN1C[C@H](c2ccc(F)c(C#N)c2)[C@@H](C(=O)Nc2ccccc2S(C)(=O)=O)C1=O (racemic)" experimental_system="giant foxtail (Setaria faberi)" attribute_measured="pest or weed control at 62.5 g/ha" measured_value=20
molecule="CN1C[C@H](c2ccnc(C(C)(C)C)n2)[C@@H](C(=O)Nc2cccc(F)c2F)C1=O (racemic)" experimental_system="giant foxtail (Setaria faberi)" attribute_measured="pest or weed control at 62.5 g/ha" measured_value=10
